Numbers sourced from ChEMBL document CHEMBL2029228.

Experiment: Clearance at steady state in CD1 mouse at 5 mg/kg, iv
Format: ADME, organism-based
Set-up: dose 5 mg/kg, route intravenous
Conditions: in vivo, read-out: CLss

{"columns": ["structure", "clearance, mL/min/kg"],
 "data": [
  ["CC[C@H]1OC(=O)[C@H](C)[C@@H](O[C@H]2C[C@@](C)(OC)[C@@H](O)[C@H](C)O2)[C@H](C)[C@@H](O[C@@H]2O[C@H](C)C[C@H](N(C)C)[C@H]2O)[C@](C)(O)C[C@@H](C)CN(C)[C@H](C)[C@@H](O)[C@]1(C)O", 16]
]}

* * *

Test: Volume of distribution at steady state in CD1 mouse at 5 mg/kg, iv
Format: ADME, organism-based
Set-up: dose 5 mg/kg, route intravenous
Conditions: in vivo, read-out: Vdss
Listed here are molecules together with their documented Vd.

{"columns": ["structure", "Vd"],
 "data": [
  ["CC[C@H]1OC(=O)[C@H](C)[C@@H](O[C@H]2C[C@@](C)(OC)[C@@H](O)[C@H](C)O2)[C@H](C)[C@@H](O[C@@H]2O[C@H](C)C[C@H](N(C)C)[C@H]2O)[C@](C)(O)C[C@@H](C)CN(CCCNCc2ccnc3ccccc23)[C@H](C)[C@@H](O)[C@]1(C)O", "4.9 L/kg"],
  ["CC[C@H]1OC(=O)[C@H](C)[C@@H](O[C@H]2C[C@@](C)(OC)[C@@H](O)[C@H](C)O2)[C@H](C)[C@@H](O[C@@H]2O[C@H](C)C[C@H](N(C)C)[C@H]2O)[C@](C)(O)C[C@@H](C)CN(CCCNc2ccnc3ccccc23)[C@H](C)[C@@H](O)[C@]1(C)O", "4.9 L/kg"],
  ["CC[C@H]1OC(=O)[C@H](C)[C@@H](O[C@H]2C[C@@](C)(OC)[C@@H](O)[C@H](C)O2)[C@H](C)[C@@H](O[C@@H]2O[C@H](C)C[C@H](N(C)C)[C@H]2O)[C@](C)(O)C[C@@H](C)CN(CCCNC(=O)CCc2ccccc2)[C@H](C)[C@@H](O)[C@]1(C)O", "5 L/kg"]
]}
